Where do these numbers come from? They come from patent US5438052A.

Test system: P. aeruginosa 27853
Assay: Minimum inhibitory concentration in vitro, agar dilution method
Type: cell-based
Conditions: Pseudomonas aeruginosa, 27853
As shown below, each of these compounds has a reported MIC value.
// note: answer is a bare numeric in µg/mL

compound	scale.unit	MIC
Cc1cc(SCC2=C(C(=O)[O-])N3C(=O)[C@@H](NC(=O)/C(=N\OCc4ccc(O)c(O)c4)c4csc(N)n4)[C@H]3SC2)n2nc(COC(=O)c3ccc(O)c(O)c3)nc2n1.[Na+] [Example 8]	µg/mL	0.12

Would you kindly share the measured MIC for Cc1cc(SCC2=C(C(=O)[O-])N3C(=O)[C@@H](NC(=O)/C(=N\OCS(=O)(=O)c4ccc(O)c(O)c4)c4csc(N)n4)[C@H]3SC2)n2nc(CNS(=O)(=O)c3ccc(O)c(O)c3)nc2n1.[Na+] [Example 3] ?
0.25
